src = patent US20180171001A1

# target.system: Env of HIV-1 strain PVO.4 (HIV-1)
# test.protocol: cell-based or functional assay
measurement.label: neutralization IC50 (µg/mL)
Respond numerically; units are µg/mL and should not be typed.

Asked: Recorded neutralization IC50 of γ52κ5 (antibody, V domains shown) VH: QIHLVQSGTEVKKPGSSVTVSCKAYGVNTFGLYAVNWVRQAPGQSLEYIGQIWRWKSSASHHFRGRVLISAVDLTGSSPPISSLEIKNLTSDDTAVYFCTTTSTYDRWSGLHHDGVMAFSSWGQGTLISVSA VL: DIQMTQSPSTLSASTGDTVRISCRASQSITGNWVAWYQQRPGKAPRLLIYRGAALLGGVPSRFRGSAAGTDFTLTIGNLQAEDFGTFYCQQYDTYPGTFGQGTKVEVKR , please.
Given back: 0.019
